Reference source for all entries: patent US10323020B2

For each of the compounds below, state its IC50.
- Assay Target: recombinant human α2C receptor (Homo sapiens (Human))
- Sequence (P18825 whole entry): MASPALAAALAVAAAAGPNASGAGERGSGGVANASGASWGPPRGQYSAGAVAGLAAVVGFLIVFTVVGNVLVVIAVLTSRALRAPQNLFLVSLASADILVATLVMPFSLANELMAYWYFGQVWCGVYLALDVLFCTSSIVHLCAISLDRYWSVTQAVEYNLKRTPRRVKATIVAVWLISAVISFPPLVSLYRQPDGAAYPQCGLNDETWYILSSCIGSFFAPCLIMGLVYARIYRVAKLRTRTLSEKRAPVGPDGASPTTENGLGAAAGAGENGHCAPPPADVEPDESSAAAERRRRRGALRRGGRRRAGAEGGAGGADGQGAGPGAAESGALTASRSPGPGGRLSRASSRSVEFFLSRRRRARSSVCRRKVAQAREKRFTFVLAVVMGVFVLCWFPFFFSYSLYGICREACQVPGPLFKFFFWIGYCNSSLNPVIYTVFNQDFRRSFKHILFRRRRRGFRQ
- Experiment: Antagonism against the adrenoreceptor α2C (luminescence, noradrenaline-stimulated CHO cells)
- Conditions Used: noradrenaline 20 nM; CHO cell line with Gαqi3 and mtOb
Answers are plain numbers, in nM.

Please review the following examples before continuing.
O=C(c1cnc(N2CC3(COC3)C2)nc1)N1CCC(N2CCc3ccc(F)cc3C2)CC1    16
CC1(C)CN(c2ncc(C(=O)N3CCC(N4CCc5ccccc5C4)CC3)cn2)CCO1    68
COCCNc1ncc(C(=O)N2CCC(N3CCc4ccccc4C3)CC2)cn1    82

Now look at this entry.
Q: Short answer please: IC50, recombinant human α2C receptor (Homo sapiens (Human)), entry CCC(COC)Nc1ncc(C(=O)N2CCC(N3CCc4cc(OC)ccc4C3)CC2)cn1 (racemic)
Ans: 20
